Entries annotated with measured IC50
# experimental.target: laminin binding to heparin
# measurement.notes: Inhibition of 125I-laminin binding to heparin-BSA
# particulars: Table 2, free peptide
Peptide text beside a SMILES is read from it.
observable: IC50

>>> observed_value("CC(C)[C@H](NC(=O)[C@H](CO)NC(=O)[C@@H](N)CO)C(=O)N[C@H](C(=O)O)[C@@H](C)O [Peptide 235, SSVT] (H-SSVT-OH)")
"> 200 µM"
>>> observed_value("C[C@H](NC(=O)[C@H](Cc1c[nH]cn1)NC(=O)[C@@H](N)CO)C(=O)N[C@@H](CO)C(=O)N1CCC[C@H]1C(=O)N[C@@H](C)C(=O)N[C@@H](CO)C(=O)N[C@@H](CO)C(=O)O [Peptide 244, SHASPASS] (H-SHASPASS-OH)")
"> 200 µM"
>>> observed_value("CC(C)C[C@H](NC(=O)[C@H](CCCNC(=N)N)NC(=O)[C@H](CO)NC(=O)[C@H](CCCNC(=N)N)NC(=O)[C@H](CCCCN)NC(=O)[C@H](CCC(N)=O)NC(=O)[C@@H](NC(=O)CNC(=O)CNC(=O)CNC(=O)[C@H](CS)NC(=O)[C@@H](NC(=O)[C@@H](N)C(C)C)[C@@H](C)O)C(C)C)C(=O)O [Peptide 245, VTCGGGVQKRSRL] (H-VTCGGGVQKRSRL-OH)")
"~200 µM"
>>> observed_value("CC(C)[C@H](NC(=O)[C@H](CO)NC(=O)[C@H](C)N)C(=O)N[C@H](C(=O)O)[C@@H](C)O [Peptide 236, ASVT] (H-ASVT-OH)")
"> 200 µM"
>>> observed_value("N[C@@H](Cc1c[nH]c2ccccc12)C(=O)N[C@@H](CO)C(=O)N1CCC[C@H]1C(=O)N[C@@H](Cc1c[nH]c2ccccc12)C(=O)N[C@@H](CO)C(=O)N[C@@H](CO)C(=O)N[C@@H](CS)C(=O)N[C@@H](CO)C(=O)O [Peptide 240, WSPWSSCS] (H-WSPWSSCS-OH)")
"100 µM"

====

# experimental.target: thrombospondin binding to sulfatide
# measurement.notes: Inhibition of 125I-thrombospondin binding to sulfatide
# particulars: Table 1, free peptide
Peptide text beside a SMILES is read from it.
observable: IC50 (µM)

>>> observed_value("CC(C)[C@H](NC(=O)[C@H](CO)NC(=O)[C@@H](N)CS)C(=O)N[C@H](C(=O)N[C@@H](CS)C(=O)NCC(=O)O)[C@@H](C)O [Peptide 187, CSVTCG] (H-CSVTCG-OH)")
14
>>> observed_value("CC(C)[C@H](NC(=O)[C@H](CO)NC(=O)[C@H](CS)NC(=O)[C@H](CO)NC(=O)[C@H](CO)NC(=O)[C@H](Cc1c[nH]c2ccccc12)NC(=O)[C@@H]1CCCN1C(=O)[C@H](CO)NC(=O)[C@@H](N)Cc1c[nH]c2ccccc12)C(=O)N[C@H](C(=O)O)[C@@H](C)O [Peptide 241, WSPWSSCSVT] (H-WSPWSSCSVT-OH)")
34

====

# experimental.target: apolipoprotein E binding to heparin
# measurement.notes: Inhibition of 125I-apolipoprotein E binding to heparin-BSA
# particulars: Table 2, free peptide; read-out: IC50 Apo E Binding to Heparin
Peptide text beside a SMILES is read from it.
observable: IC50 (µM)

>>> observed_value("CC(C)[C@H](NC(=O)[C@H](CO)NC(=O)[C@H](CS)NC(=O)[C@H](CO)NC(=O)[C@H](CO)NC(=O)[C@H](Cc1c[nH]c2ccccc12)NC(=O)[C@@H]1CCCN1C(=O)[C@H](CO)NC(=O)[C@@H](N)Cc1c[nH]c2ccccc12)C(=O)N[C@H](C(=O)O)[C@@H](C)O [Peptide 241, WSPWSSCSVT] (H-WSPWSSCSVT-OH)")
180
>>> observed_value("CC(C)[C@H](NC(=O)[C@H](CO)NC(=O)[C@@H](N)CS)C(=O)N[C@H](C(=O)N[C@@H](CS)C(=O)NCC(=O)O)[C@@H](C)O [Peptide 187, CSVTCG] (H-CSVTCG-OH)")
84
>>> observed_value("CC[C@H](C)[C@H](NC(=O)[C@H](CC(=O)O)NC(=O)[C@H](Cc1c[nH]c2ccccc12)NC(=O)[C@@H]1CCCN1C(=O)[C@H](CO)NC(=O)[C@H](Cc1c[nH]c2ccccc12)NC(=O)[C@@H]1CCCN1C(=O)CN)C(=O)N[C@@H](CS)C(=O)N[C@@H](CO)C(=O)N[C@H](C(=O)N[C@H](C(=O)O)[C@@H](C)O)C(C)C [Peptide 186, GPWSPWDICSVT] (H-GPWSPWDICSVT-OH)")
52
>>> observed_value("N[C@@H](CO)C(=O)N[C@@H](Cc1c[nH]cn1)C(=O)N[C@@H](Cc1c[nH]c2ccccc12)C(=O)N[C@@H](CO)C(=O)N1CCC[C@H]1C(=O)N[C@@H](Cc1c[nH]c2ccccc12)C(=O)N[C@@H](CO)C(=O)N[C@@H](CO)C(=O)O [Peptide 239, SHWSPWSS] (H-SHWSPWSS-OH)")
250

====

# experimental.target: thrombospondin binding to sulfatide
# measurement.notes: Inhibition of 125I-thrombospondin binding to sulfatide
# particulars: Table 1, free peptide
pIC50: −log10 of the molar value. Peptide text beside a SMILES is read from it.
observable: pIC50

>>> observed_value("CC(C)[C@H](N)C(=O)N[C@H](C(=O)N[C@@H](CS)C(=O)NCC(=O)O)[C@@H](C)O [Peptide 203, VTCG] (H-VTCG-OH)")
"< 3.70"
>>> observed_value("CC[C@H](C)[C@H](NC(=O)CNC(=O)[C@H](CC(N)=O)NC(=O)CNC(=O)[C@H](CS)NC(=O)[C@H](CO)NC(=O)[C@@H](N)[C@@H](C)O)C(=O)N[C@@H](CCC(N)=O)C(=O)N[C@@H](CCC(N)=O)C(=O)N[C@@H](CCCNC(=N)N)C(=O)O [Peptide 206, TSCGNGIQQR] (H-TSCGNGIQQR-OH)")
"< 3.70"
>>> observed_value("CC(C)[C@H](N)C(=O)N[C@H](C(=O)N[C@@H](CS)C(=O)NCC(=O)NCC(=O)NCC(=O)N[C@H](C(=O)N[C@@H](CCC(N)=O)C(=O)N[C@@H](CCCCN)C(=O)N[C@@H](CCCNC(=N)N)C(=O)O)C(C)C)[C@@H](C)O [Peptide 204, VTCGGGVQKR] (H-VTCGGGVQKR-OH)")
"< 3.70"
>>> observed_value("CC(C)[C@H](NC(=O)[C@H](CO)NC(=O)[C@@H](N)CO)C(=O)N[C@H](C(=O)O)[C@@H](C)O [Peptide 235, SSVT] (H-SSVT-OH)")
"< 3.70"
